measurement_type: melting point

- compound: "Cc1ccccc1NC(=N)NC1CCCCC1"
  measurement_type: "melting point"
  result: "145 to 146 °C"
- compound: "CC/C(=C\\CCC(O)(CC)CC)c1csc(COc2ccc(CO)c(CO)c2)c1"
  measurement_type: "melting point"
  result: "73 to 74 °C"

Here's the next entry for you.
Answer with the recorded melting point of NC(=O)c1nccn1C1Cc2cc(-n3ccnc3)ccc2C1=O (stereo not drawn) only.
140 °C

---

Measured melting point, listed per entry.

- compound: "COC(=O)CN=C(Cc1ccccc1)N1CC2C(=O)CCC(c3ccccc3)(c3ccccc3)C2C1 (centres undefined)"
  melting point: "147 °C"
- compound: "CN(C)C(=O)Nc1ccc(N2CCOCC2)cc1"
  melting point: "199 to 204 °C"
- compound: "COC(=O)c1cc2cc(SCc3sc(-c4ccc(C(F)(F)F)cc4)nc3C)ccc2o1"
  melting point: "132 to 133 °C"
- compound: "COc1cc(C)nc(NC(=O)NS(=O)(=O)c2c(C)nn(C)c2OC)n1"
  melting point: "183 to 184 °C"
- compound: "C[C@]1(CN2CCC(NC(=O)OCc3ccc(C(F)(F)F)cc3)CC2)Cn2cc([N+](=O)[O-])nc2O1"
  melting point: "141 to 144 °C"
- compound: "CC(C)(C)OC(=O)CN1C(=O)[C@@H](N)CSc2ccccc21"
  melting point: "86 to 89 °C"
- compound: "CC(=O)NC[C@H]1CN(c2ccc(N3CCC(n4cc(CO)nn4)CC3)c(F)c2)C(=O)O1"
  melting point: "160 to 162 °C"
- compound: "CCOC(=O)N1CCC(=C2c3ccc(Cl)cc3OCc3cc([N+](=O)[O-])cnc32)CC1"
  melting point: "192 to 193 °C"

Supply melting point value. Item: `O=[N+]([O-])c1cnccc1NCCCCO`
80 to 82 °C

Please indicate melting point recorded for CC(c1ccc(N)cc1)n1ccnc1 (centres undefined)
130 °C

Please report the measured melting point for O=S(=O)(c1ccccc1)C(Cc1ccccc1)c1ccc(C(O)(C(F)(F)F)C(F)(F)F)cc1 (centres undefined)
157 °C

Input Cc1nn(-c2cc3nc(S(=O)Cc4ccccc4)sc3cc2F)c(=O)n1C (centres undefined) , output reported melting point.
162 to 164 °C

Consider the compound `COC(=O)c1ccc(-c2nc(-c3ccc(C(F)(F)F)cc3)no2)c(NC(=O)C(F)(F)F)c1` and give its recorded melting point.
188 to 189 °C

Name the recorded melting point of the item CC(N)c1ccccc1O (single isomer, unassigned; (+)) in your answer.
83 to 83.5 °C

Note melting point for the compound shown: Cn1c2c(ccc1=O)C(NCCc1ccc(Cl)cc1Cl)CCC2 (centres undefined)
102 to 103 °C

Report measured melting point; entry is `CC(=O)c1ccc(S(=O)(=O)NC(C)(C)C(=O)O)cc1`
157 to 158 °C

Answer with reported melting point of O=C1CC2(C(=O)N1)C(=O)N(Cc1ccc(Cl)c(Cl)c1)c1ccc(Cl)cc12 (centres undefined)
268 to 270 °C

---

Quick reference: melting point of the listed items.

Illustrative cases are given below, each with its answer.
- compound: "C#Cc1cnc(C)c(O)c1CO"
  melting point: "170 to 171 °C"
- compound: "CC1=NN(c2cc(-c3ccnc(Nc4cccc(Cl)c4)n3)ccn2)C(=O)CC1"
  melting point: "189 to 192 °C"
- compound: "CN1CCN(c2n[nH]c(=S)n2C2CCc3ccccc3C2)CC1 (centres undefined)"
  melting point: "217 to 218 °C"
- compound: "CCOC(=O)c1nn(-c2ccc(N(C)C)cc2)c(=O)c2c(N)scc12"
  melting point: "211 to 213 °C"
- compound: "CCCNC(=O)N1CCc2cc(S(=O)(=O)n3cc(-c4ccccc4)[nH]c3=O)ccc21"
  melting point: "165 to 167 °C"
- compound: "CC(CCCc1ccc(F)cc1)c1cc(O)c2c3c(c(=O)oc2c1)CCC3 (centres undefined)"
  melting point: "133 to 135 °C"
- compound: "Cc1nc(-n2c(=O)ccc3cc(OCc4ccccc4)ccc32)sc1C(=O)NCc1ccccc1"
  melting point: "213 to 216 °C"
- compound: "O=C(Nc1ccccc1)c1cnc2c(C(F)(F)F)cccc2c1-c1ccccc1"
  melting point: "207 to 208 °C"

Indicate the recorded melting point value for this compound: `CC(=O)N[C@@H](CSC(C)=O)C(=O)NCCSC(=O)C(C)C`
115 to 117 °C

State its melting point: `C=CC(=O)c1cc(OC)c(OC)c(OC)c1`
46 to 47 °C

For the compound `O=S(=O)(c1ccccc1)c1ccc2c(c1)NCC(C(F)F)(C(F)F)O2` , report melting point.
100 to 113 °C

Look up and state reported melting point for `Cc1cc(-n2ccnc2)c2cccc(OCc3c(Cl)ccc(S(=O)(=O)N4CCC[C@H]4C(=O)N(C)CCCN(C)C(=O)OC(C)(C)C)c3Cl)c2n1`
70 °C

Indicate the recorded melting point value for this compound: `O=C(c1ccc(-c2ccc3c(c2)CCN(C2CCN(Cc4ccccc4)CC2)C3=O)cc1)N1CCCC1`
197 to 198 °C

Identify melting point associated with the compound `Cc1cc2c(=O)n3cc(C(=O)O)ccc3nc2s1`
312 to 315 °C

---

measurement_type: melting point

Example compounds with recorded melting point:
- compound: "C=C(C)C(=O)NC1=CC(O)(C(C)=O)C(C(=O)O)C=C1 (stereo not drawn)"
  measurement_type: "melting point"
  result: "178 °C"
- compound: "Cc1cc(-c2ccc(C(F)(F)F)cc2)cn2c(-c3nc(-c4cccc(S(N)(=O)=O)c4)no3)cnc12"
  measurement_type: "melting point"
  result: "326 °C"
- compound: "O=C(O)Cn1nnnc1S"
  measurement_type: "melting point"
  result: "110 to 111 °C"

Specify melting point for COC(=O)c1ccc2c(c1)C(S(=O)(=O)c1ccccc1)CC(=O)CO2 (stereo not drawn) and stop.
128 to 130 °C

Quickly give me recorded melting point for `COc1cccc(C=Cc2ccccc2)c1O`
85 to 87 °C

Name the recorded melting point of the item Cc1cccc2c1N(CC(=O)c1cccc([N+](=O)[O-])c1)C(=O)C(NC(=O)Nc1cccc(-c3nnn[nH]3)c1)N=C2c1ccccc1F (stereo not drawn) in your answer.
194 to 198 °C

Return melting point for the following compound: CCCc1c(OCC(O)CS(=O)(=O)c2ccc(C(=O)CCC(=O)O)cc2F)ccc(C(C)=O)c1O (stereo not drawn)
96 to 99 °C

Query melting point for O=C1N=CC(OCc2ccccn2)(C(F)(F)F)c2cc(Cl)ccc2N1 (stereo not drawn)
233 to 235 °C

State, in one line, measured melting point of `C[C@](N)(CO)CCc1ccc2oc(-c3ccccc3)nc2c1`
128 °C

Please indicate melting point recorded for `OCc1cn(C(c2ccccc2)(c2ccccc2)c2ccccc2)cn1`
224 to 227 °C

Could you please provide reported melting point for `COc1ccc(N2CCN(C=C3C(=O)Nc4cc(OC)c(OC)cc43)CC2)cc1OC` ? Thanks!
193 to 195 °C

Determine its reported melting point: COc1cc2c(cc1OC)C1N=Cc3cc4c(cc3C1CC2)OCO4 (stereo not drawn)
208 to 210 °C

Consider the compound `CN(C(=O)C(=O)c1cn(Cc2ccc(Cl)cc2)c2ccccc12)C1=CC(=O)OC1` and give its recorded melting point.
205 to 208 °C

Answer with reported melting point of `CN(C)C=Nc1ccc(-c2cc3c(Nc4cccc(Cl)c4)ncnc3[nH]2)cc1`
> 300 °C

Identify melting point associated with the compound `CCCCCC[C@H](CC(=O)OC(C)(C)C)C(=O)N1C(=O)OC[C@@H]1C(C)C`
50 to 51 °C

Quick one: give measured melting point for `COCc1ccc(-c2coc3ccc(-c4nnc(C)o4)cc23)cc1`
158 to 159 °C

Give melting point for the following compound: CC(C)c1ccc(C2c3cc(N(C)C(=O)CC(C)(C)C)ccc3OC2(C)C)cc1 (stereo not drawn)
78 to 79 °C

Supply measured melting point of `O=[N+]([O-])c1ccccc1SNc1nc(OCc2ccc(F)cc2)ncc1F` in your reply.
184 °C

Please give the documented melting point of `O=C(Nc1ccc(F)cn1)c1cc(-c2ccc(Cl)c(Cl)c2)nc2ccccc12`
204 to 205 °C

Fill in melting point for record `Cc1c(C#N)cc2ccc3c(c2c1Br)C(C)(C)C(=O)O3`
235 to 237 °C

Give recorded melting point. `COc1c(Br)cc(N)cc1C(C)=O`
93 to 94 °C

---

Recorded melting point by entry

Example entries and their recorded answers appear below.
- compound: "ClC1Cc2cc(Br)ccc2Sc2ccccc21 (stereo unspecified)"
  melting point: "122 to 124 °C"
- compound: "N#Cc1ccc2oc(CCc3ccc(CO)cc3)cc2c1"
  melting point: "72 to 73 °C"
- compound: "Cc1cccc(C(O)c2ocnc2C)c1 (stereo unspecified)"
  melting point: "76.5 to 77.5 °C"

Give the value of melting point reported for the following: `S=C(Nc1ccc(Cl)cc1)Nc1ncccc1OCc1ccccc1`
140 to 143 °C

Provide only the value of recorded melting point for COC1CN=C(N2CCN(c3ccc(O)cc3)CC2)S1 (stereo unspecified)
166 °C

Answer with reported melting point of `CCn1ncnc1COc1nn2c(-c3ccccc3F)nncc2c1-c1ccsc1`
187 to 193 °C

Answer with the recorded melting point of `CC(=O)C=Cc1ccc(NS(C)(=O)=O)c(Sc2ccc(F)cc2F)c1` only.
119 to 120 °C

Give a short answer stating reported melting point for `FC(F)(F)c1cc(Sc2ccc(Cl)cc2)c(-c2ccc(Cl)cc2)[nH]1` .
39 to 54 °C

Note down melting point recorded for `N#CCCNC(=O)c1cccc(-c2ccc3c(n2)N(c2ccc(Cl)cc2Cl)CC3)c1`
219 to 220 °C

Using the record for NN=Cc1ccc(CC(=O)NC2CCC3(CC2)CN(CC(=O)O)C(=O)O3)cc1 (stereo unspecified) , state its measured melting point.
193 to 196 °C

Respond only with melting point recorded for `COc1cc(-c2nnc3n2CCC[C@]3(Oc2cc(F)c(F)c(F)c2)C(C)(C)O)ccc1-c1cnc(C)o1`
188 °C

Cited source for all entries: a melting point compilation (Tetko et al.; mined from patent text by program, amines drawn as free bases though some values may be those of a salt)
